Molecular target: T1, RXFP1 receptor (UniProt Q9HBX9 1-757, limits assumed)
T1 sequence (looked up): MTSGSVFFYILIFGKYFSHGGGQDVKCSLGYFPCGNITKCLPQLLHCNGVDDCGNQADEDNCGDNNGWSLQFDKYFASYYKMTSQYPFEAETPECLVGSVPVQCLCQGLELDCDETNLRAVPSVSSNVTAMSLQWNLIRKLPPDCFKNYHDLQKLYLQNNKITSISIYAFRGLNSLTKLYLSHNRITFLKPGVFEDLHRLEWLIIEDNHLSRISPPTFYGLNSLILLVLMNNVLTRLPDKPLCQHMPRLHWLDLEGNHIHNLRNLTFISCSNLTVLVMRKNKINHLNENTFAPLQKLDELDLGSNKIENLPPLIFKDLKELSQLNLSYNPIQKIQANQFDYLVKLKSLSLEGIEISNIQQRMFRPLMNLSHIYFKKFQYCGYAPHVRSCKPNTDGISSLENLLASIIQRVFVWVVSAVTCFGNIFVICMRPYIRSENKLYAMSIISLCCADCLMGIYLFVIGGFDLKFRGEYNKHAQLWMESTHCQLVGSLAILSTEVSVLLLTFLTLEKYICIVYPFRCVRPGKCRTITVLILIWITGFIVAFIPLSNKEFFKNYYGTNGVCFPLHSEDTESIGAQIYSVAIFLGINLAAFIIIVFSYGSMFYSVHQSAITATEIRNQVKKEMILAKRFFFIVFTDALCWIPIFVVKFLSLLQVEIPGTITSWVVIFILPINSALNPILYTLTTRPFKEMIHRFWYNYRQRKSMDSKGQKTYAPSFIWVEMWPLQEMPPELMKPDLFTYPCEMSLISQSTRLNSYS
Assay: cell-based or functional assay
*1 amine or outer side, *2 acyl side, *3 side chain or, on linkers, in order; H or OH if unused. Primed or numbered codes have the meaning given here. Side-chain parts run from the residue outwards. [ ]: non-standard residue; d: D form. The star is where a group is joined. γGlu = O=C(O)[C@H](CCC(=O)[*:2])N[*:1]; 1Nal = N[C@@H](Cc1cccc2ccccc12)C(=O)O; Stearoyl = CCCCCCCCCCCCCCCCCC(=O)*; Myristoyl = CCCCCCCCCCCCCC(=O)*; Nle = CCCC[C@H](N)C(=O)O; PEG2′ = PEG2 spacer unit; Aib = CC(C)(N)C(=O)O
# EMax, OVCAR 5 cells (cAMP) annotations
Enter your answer as a number in %; do not include the unit.

[
  {
    "binder": "Ac-LEGREKVRAQI[Aib][Aib]EG[Nle]STWS[Aib]RKK(Ac)K([PEG2′-PEG2′-Stearoyl])-NH2 [peptide of SEQ ID NO: 51]",
    "units": "%",
    "EMax, OVCAR 5 cells (cAMP)": 100
  },
  {
    "binder": "Ac-LEGREKVRAQI[Aib][Aib]EG[Nle]STWS[Aib]RKKK([PEG2′-PEG2′-PEG2′-γGlu-γGlu-γGlu-Stearoyl])-NH2 [peptide of SEQ ID NO: 174]",
    "units": "%",
    "EMax, OVCAR 5 cells (cAMP)": 88
  },
  {
    "binder": "Ac-LEGREKVRAK(Ac)I[Aib][Aib]EG[Nle]ST[1Nal]S[Aib]RK(Ac)LK([PEG2′-PEG2′-PEG2′-γGlu-γGlu-γGlu-Stearoyl])-NH2 [peptide of SEQ ID NO: 87]",
    "units": "%",
    "EMax, OVCAR 5 cells (cAMP)": 71
  }
]

Q: Value lookup for EMax, OVCAR 5 cells (cAMP); key = Ac-LEGREKVRAK(Ac)I[Aib][Aib]EG[Nle]STWS[Aib]RKK(Ac)K([PEG2′-PEG2′-PEG2′-γGlu-γGlu-γGlu-Myristoyl])-NH2 [peptide of SEQ ID NO: 178]
A: 93
